Assay Notes: Stability of cannabinoid and Vitamin E components of Beverage 1 (AB White) stored at 8° C. and 21-25° C., LCMSMS over 570 days
Format: physicochemical
Experimental Parameters: beverage stored at 21-25° C., day 15
Assay Endpoint: Stability in AB White, 21-25° C. (content by LCMSMS) (µg/mL)
The response must be a number in µg/mL with no trailing unit.

Ask: Return the recorded Stability in AB White, 21-25° C. (content by LCMSMS) value; entry: CCCCCc1cc(O)c2c(c1)OC(C)(CCC=C(C)C)C=C2 (centres unmarked) [CBC, cannabichromene]
Result: 0.311

Ask: Return the recorded Stability in AB White, 21-25° C. (content by LCMSMS) value; entry: C=C(C)[C@@H]1CCC(C)=C[C@H]1c1c(O)cc(CCCCC)c(C(=O)O)c1O [CBDA, cannabidiolic acid]
Result: 1.69

Ask: Return the recorded Stability in AB White, 21-25° C. (content by LCMSMS) value; entry: CCCCCc1cc2c(c(O)c1C(=O)O)[C@@H]1C=C(C)CC[C@H]1C(C)(C)O2 [D9 THCA, delta-9-tetrahydrocannabinolic acid]
Result: 0.948

Ask: Return the recorded Stability in AB White, 21-25° C. (content by LCMSMS) value; entry: CCCCCc1cc(O)c(C/C=C(\C)CCC=C(C)C)c(O)c1 [CBG, cannabigerol]
Result: 4.87

Ask: Return the recorded Stability in AB White, 21-25° C. (content by LCMSMS) value; entry: C=C(C)[C@@H]1CCC(C)=C[C@H]1c1c(O)cc(CCC)cc1O [CBDV, cannabidivarin]
Result: 0.151

====

Assay Notes: Stability of cannabinoid and Vitamin E components of Beverage 2 (AB Red) stored at 8° C. and 21-25° C., LCMSMS over 570 days
Experimental Parameters: 21-25° C., 11 days
Assay Endpoint: Stability of Cannabinoids in AB Red
Kindly report the value followed by its unit.

C=C(C)[C@@H]1CCC(C)=C[C@H]1c1c(O)cc(CCCCC)c(C(=O)O)c1O	1.64 µg/mL
CCCCCc1cc(O)c2c(c1)OC(C)(C)[C@@H]1CCC(C)=C[C@@H]21 [D9 THC, delta-9-tetrahydrocannabinol, reference compound]	12.9 µg/mL
CCCCCc1cc(O)c(C/C=C(\C)CCC=C(C)C)c(O)c1	4.72 µg/mL
CCCc1cc(O)c2c(c1)OC(C)(C)[C@@H]1CCC(C)=C[C@@H]21 [THCV, delta-9-tetrahydrocannabivarin]	3.24 µg/mL
CCCCCc1cc(O)c2c(c1)OC1(C)CCC3C1C2C3(C)C (stereo not drawn)	0.50 µg/mL
CCCCCc1cc2c(c(O)c1C(=O)O)[C@@H]1C=C(C)CC[C@H]1C(C)(C)O2 [D9 THCA, delta-9-tetrahydrocannabinolic acid]	1.33 µg/mL
CCCCCc1cc(O)c2c(c1)OC(C)(CCC=C(C)C)C=C2 (stereo not drawn)	0.29 µg/mL
CCCCCc1cc(O)c2c(c1)OC(C)(C)c1ccc(C)cc1-2	2.83 µg/mL

Ask: Return the recorded Stability of Cannabinoids in AB Red value; entry: C=C(C)[C@@H]1CCC(C)=C[C@H]1c1c(O)cc(CCC)cc1O
Result: 0.20 µg/mL

====

Recorded Stability of Cannabinoids in AB Red by entry
Assay Notes: Stability of cannabinoid and Vitamin E components of Beverage 2 (AB Red) stored at 8° C. and 21-25° C., LCMSMS over 570 days
Experimental Parameters: 8° C., 19 days
The response must be a number in µg/mL with no trailing unit.

# example entries with known answers
CCCc1cc(O)c2c(c1)OC(C)(C)[C@@H]1CCC(C)=C[C@@H]21 [THCV, delta-9-tetrahydrocannabivarin]	3.19
C=C(C)[C@@H]1CCC(C)=C[C@H]1c1c(O)cc(CCCCC)c(C(=O)O)c1O [CBDA, cannabidiolic acid]	1.68
C=C(C)[C@@H]1CCC(C)=C[C@H]1c1c(O)cc(CCC)cc1O [CBDV, cannabidivarin]	0.199
CCCCCc1cc(O)c2c(c1)OC(C)(C)c1ccc(C)cc1-2 [CBN, cannabinol]	2.78
CCCCCc1cc(O)c2c(c1)OC1(C)CCC3C1C2C3(C)C (stereo not drawn) [CBL, cannabicyclol]	0.510

As a next step, examine the molecule that follows.
Ask: Return the recorded Stability of Cannabinoids in AB Red value; entry: CCCCCc1cc(O)c2c(c1)OC(C)(C)[C@@H]1CCC(C)=C[C@@H]21 [D9 THC, delta-9-tetrahydrocannabinol, reference compound]
Result: 12.7

====

Assay Notes: Stability of cannabinoid and Vitamin E components of Beverage 2 (AB Red) stored at 8° C. and 21-25° C., LCMSMS over 570 days
Experimental Parameters: 21-25° C., 240 days
Lab note: cut-off is 3 µg/mL. Strictly less in Stability of Cannabinoids in AB Red is true. Exactly 3 µg/mL or more is false.

Known results for molecules:
C=C(C)[C@@H]1CCC(C)=C[C@H]1c1c(O)cc(CCCCC)c(C(=O)O)c1O	true
CCCCCc1cc(O)c2c(c1)OC(C)(CCC=C(C)C)C=C2 (stereo not shown)	true
C=C(C)[C@@H]1CCC(C)=C[C@H]1c1c(O)cc(CCC)cc1O	true
CCCCCc1cc(O)c2c(c1)OC1(C)CCC3C1C2C3(C)C (stereo not shown)	true
CCCCCc1cc(O)c(C/C=C(\C)CCC=C(C)C)c(O)c1	false

Ask: Is Stability of Cannabinoids in AB Red of CCCCCc1cc(O)c2c(c1)OC(C)(C)c1ccc(C)cc1-2 strictly below 3 µg/mL?
Result: true

Ask: Is Stability of Cannabinoids in AB Red of CCCc1cc(O)c2c(c1)OC(C)(C)[C@@H]1CCC(C)=C[C@@H]21 [THCV, delta-9-tetrahydrocannabivarin] strictly below 3 µg/mL?
Result: false

====

Assay Notes: Stability of cannabinoid and Vitamin E components of Beverage 1 (AB White) stored at 8° C. and 21-25° C., LCMSMS over 570 days
Assay type: physicochemical
Experimental Parameters: beverage stored at 8° C., day 450
Assay Endpoint: Stability in AB White, 8° C. (content by LCMSMS) (µg/mL)
The response must be a number in µg/mL with no trailing unit.

# example entries with known answers
CCCCCc1cc(O)c(C/C=C(\C)CCC=C(C)C)c(O)c1	4.68
C=C(C)[C@@H]1CCC(C)=C[C@H]1c1c(O)cc(CCCCC)c(C(=O)O)c1O	1.68

Ask: Return the recorded Stability in AB White, 8° C. (content by LCMSMS) value; entry: CCCCCc1cc(O)c2c(c1)OC1(C)CCC3C1C2C3(C)C (stereo not drawn)
Result: 0.532

====

Assay type: physicochemical
Experimental Parameters: stored at room temperature (21-25° C.), day 30
Give satisfied when the value for Stability in Powder Concentrate (content by LCMSMS) is at least 1 mg/g powder. Give not satisfied when it is less.

Ask: Given the entry C=C(C)[C@@H]1CCC(C)=C[C@H]1c1c(O)cc(CCCCC)cc1O [CBD, cannabidiol, reference compound] , answer whether its Stability in Powder Concentrate (content by LCMSMS) meets or surpasses 1 mg/g powder.
Result: satisfied

Ask: Given the entry CCCc1cc(O)c2c(c1)OC(C)(C)[C@@H]1CCC(C)=C[C@@H]21 [THCV, delta-9-tetrahydrocannabivarin] , answer whether its Stability in Powder Concentrate (content by LCMSMS) meets or surpasses 1 mg/g powder.
Result: not satisfied

Ask: Given the entry C=C(C)[C@@H]1CCC(C)=C[C@H]1c1c(O)cc(CCC)cc1O , answer whether its Stability in Powder Concentrate (content by LCMSMS) meets or surpasses 1 mg/g powder.
Result: not satisfied

Ask: Given the entry CCCCCc1cc(O)c(C/C=C(\C)CCC=C(C)C)c(O)c1 , answer whether its Stability in Powder Concentrate (content by LCMSMS) meets or surpasses 1 mg/g powder.
Result: satisfied

Ask: Given the entry CCCCCc1cc(O)c2c(c1)OC(C)(C)[C@@H]1CCC(C)=C[C@@H]21 [D9 THC, delta-9-tetrahydrocannabinol, reference compound] , answer whether its Stability in Powder Concentrate (content by LCMSMS) meets or surpasses 1 mg/g powder.
Result: satisfied

Ask: Given the entry CCCCCc1cc(O)c2c(c1)OC(C)(CCC=C(C)C)C=C2 (centres unmarked) , answer whether its Stability in Powder Concentrate (content by LCMSMS) meets or surpasses 1 mg/g powder.
Result: not satisfied

Ask: Given the entry Cc1c(C)c2c(c(C)c1O)CC[C@@](C)(CCC[C@H](C)CCC[C@H](C)CCCC(C)C)O2 , answer whether its Stability in Powder Concentrate (content by LCMSMS) meets or surpasses 1 mg/g powder.
Result: satisfied

Ask: Given the entry Cc1c(C)c2c(c(C)c1OC(=O)CCC(=O)O)CC[C@@](C)(CCC[C@H](C)CCC[C@H](C)CCCC(C)C)O2 [α-Tocopheryl succinate] , answer whether its Stability in Powder Concentrate (content by LCMSMS) meets or surpasses 1 mg/g powder.
Result: satisfied
